# Test system: OVCAR-4 ovarian
# Assay Explanation: NCI tumour cell line growth inhibition, 48 h
For each entry below, report its TGI value.

Molecule	TGI
Cc1ccc(-c2csc3ncnc(Nc4cccc(O)c4)c23)cc1	> 100 µM
CCc1n(Cc2ccc3ccccc3c2)cc[n+]1Cc1ccc2ccccc2c1	1.28 µM
CCc1n[nH]c(=O)n1N	> 100 µM
COc1cc(Br)c(/C=N/N=C(\N)NO)cc1OC	> 100 µM
Cc1ccccc1-n1c(=O)nc2n(-c3ccc(C(C)(C)C)cc3)c3ccccc3cc-2c1=O	92.5 µM
NC(N)=NS(=O)(=O)c1ccc(NCc2cccc3c(=O)c4ccc(Cl)cc4oc23)cc1	> 18 µM

Field: TGI. Fill in for each record below.
1. CN1C=C(C(N)=O)Cc2ccsc21
2. O=C1c2c[n+](Cc3ccccc3)ccc2-c2nc3ccccc3c3ccnc1c23
3. Cc1ccnn1CCc1ccc(Cl)cc1Cl
4. Nc1ccc(C(=O)NN2C(=O)C(Cl)C2c2ccc(O)cc2)cc1 (configuration not stated)
5. CCSc1c2cc(OC)ccc2nc2ccc(OC)cc12
6. Cc1ccc(C)c(NC(=O)C(=O)C(C2C(C)CC(=O)C2CC(=O)O)[N+](=O)[O-])c1 (configuration not stated)

1. > 100 µM
2. 0.92 µM
3. > 100 µM
4. 41.4 µM
5. > 75.8 µM
6. > 100 µM

====

Give TGI for every item shown.
# Test system: HOP-18 NSCLC
# Assay Explanation: NCI tumour cell line growth inhibition, 48 h
Answers are plain numbers, in µM.

Recorded results for 4 compounds are shown here.
Compound	Reading Unit	Endpoint Value
O=C1C2C3C=CC(C2C(=O)N1CN1CCOCC1)C1C2C(=O)N(CN4CCOCC4)C(=O)C2C31 (configuration not stated)	µM	60.2
CC(C)CC1CC2C(=O)N(c3ccccc3)C(=O)C2c2[nH]c3ccccc3c21 (configuration not stated)	µM	31.4
C=C1C(=O)OC2/C=C(CO)/C=C\C3OC3(C)CC(OC(=O)/C(C)=C/COC(C)=O)C12 (configuration not stated)	µM	22.1
C=C1C(=O)OC2/C=C(\CO)C3OC3C3OC3(C)CC(OC(=O)/C(=C/C)COC(C)=O)C12 (configuration not stated)	µM	21.6

System HOP-18 NSCLC. Read-out TGI. Item COc1cc(C2c3cc4c(cc3[C@@H](Nc3cnc5ccccc5c3)C3COC(=O)[C@H]23)OCO4)cc(OC)c1O (some centres not stated) . Report value.
2.65

====

# System: OVCAR-5 ovarian
# Assay Explanation: NCI tumour cell line growth inhibition, 48 h
Kindly supply the reported TGI values for the records listed here.

Molecule	Endpoint Value
COc1ccc(-n2c(C)nc3ccc(NC4OC(COC(C)=O)C(OC(C)=O)C(OC(C)=O)C4OC(C)=O)cc3c2=O)cc1 (centres undefined)	> 100 µM
O=C(Nc1ccc(Br)cc1)c1cc(Br)ccc1O	> 92.4 µM
NNC(=O)C(=O)N/N=C1\CCCC1C(=O)CCC(=O)Nc1cccc(Cl)c1 (centres undefined)	> 100 µM
CC1=CC2=C(C=O)C(=O)[C@](C)(O)[C@@H](O)C2=CO1	> 100 µM
C#CCNC(CCCN=C(N)N)C(=O)O (centres undefined)	> 100 µM

Required: TGI, one value per molecule below.
1. COc1cc(/C=C2\CC3C4CC=C5C[C@@H](N6CCCC6)CC[C@]5(C)C4CC[C@]3(C)[C@H]2OC(C)=O)ccc1OCCCn1ccnc1 (some centres undefined)
2. COc1cc(Br)c(C=Nc2cccc3ccc(OS(=O)(=O)c4ccc([N+](=O)[O-])cc4)cc23)cc1OC
3. CCC(=O)NC(NNS(=O)(=O)c1ccc(C)cc1)(C(F)(F)F)C(F)(F)F

15.3 µM
> 100 µM
> 100 µM

Tell me measured TGI for NC(=O)c1c(NC(=O)c2ccc(C(F)(F)F)cc2Cl)sc2c1CCC(=O)C2 please.
2.33 µM
